assay: soluble on expression in E. coli; label from the status in PepcDB or PDB records
Measurement Kind: soluble on expression in E. coli

// known answers, use as guide
MPLTSVTPLCITWNGEKLVAAGYDSTILTAVPKDIVKVKVNDRPIVFDVAPIIGEGRTLVPLRHIFEALGAEVKWDASTRTVTGIKGSDKIILKIDSKEALVNGETKELDVPATIVNGRTLVPVRSISESLGAEVSWDDNSKTVIIKTNF	not soluble
AKRYWNANLDTYHPKNVSQNRALLTIRVFVHNFNPEEGKGLTFVGSPGVGKTHLAVATLKAIYEKKGIRGYFFDTKDLIFRLKHLMDEGKDTKFLKTVLNSPVLVLDDLGSERLSDWQRELISYIITYRYNNLKSTIITTNYSLQREEESSVRISADLASRLGENVVSKIYEMNELLVIKGSDLR	soluble
YIGSQDTPYTGGLINTFSYKNWELTANLSFNLGGYVRTTPSYNFINFDRGQNVNSDILDRWTPENTDGRLPALITSEKRADEYYWYDQKSEIYKNLDIWVKKLNYFRLQNLRLGYRLPEKMTKSLGMGSASVAIEGRNLLVFGSSYKNFLDPESMYNPYAPPIPKSITFSLNLNF	not soluble
MGHHHHHHSHANSIDLIGYVHQPVQFDSTLDGKFWAGTVISHEPSSDSKSESDSSSNFWIPVLFEGDLAHTANSYLKKNDRVHITGQILGDVIQSGANSDQAHVQLFKSFHGSFSHQVMVRD	not soluble
MLKKAEKFEKIFRLESSLRALERVRDFLSQESYERLRELVLIRLKGIKIEEKELNSKVAVAFSGGSDSSATYKILAWAGFKVYPITAKLPQMRDEVLKRLESGGAIFVEIPEYMEVMEDLIRKRTAICGRCHSMVMRAVEERARELGAEIVASGDMLTVGSGSIYEKDGIVILNLPAFLALDKKELLEILGWKKYELKYGCPLWKEAAKRAPVLKKFGLQRVLRELRGGALPKEFAKELIIDILRA	not soluble
MKTFEVMIQTDSKGYLDAKFGGNAPKAFLNSNGLPTYSPKISWQKVEGAQSYALELIDHDAQKVCGMPFVHWVVGNIAHNVLEENASMMDKRIVQGVNSLTQGFIRSPLNESEKQRSNLNNSVYIGPMPPNGDHHYLIQVYALDIPKLALKAPFFLGDLHDKMRNHIIAIGRKEFLYKQFVRK	soluble

Need soluble on expression in E. coli, item MSLRKFSLIMATYGRKDEVGCFLESLMNSNYPMDKVEVIIVDQNKEIDLEPIISKYKEKIKVVHIKSNERGLALNRNKGLEIATGDIIAFPDDDCEYLVDTLNIVNNYFENEHCDLLMGRIVERNGEDSLREWPKEKIEINKNNFYTKCSSVTMFLDSKKCFVKFNDQLGAGKYFGACEDADLIYKNCKKGLKIIYNPELQIYHPHYDSNSNMDDKKIYSYGLGFGAMVKSNFDFSMLILFIKAEGYHFLKSLIYLITFKTTKSKRSWLAFKSRIKGFFEYKNEGHHHHHH
soluble

For GMTESDRDQEASMREVVIVKSTPQRGKFNAFAELVGKLVSETRDFPGCLGAYLMLAPERNEQVVMHIWETPDALEAYLTWRADRGDFLEINEYLEVEQDFKTYQLA then?
soluble

For SLAGVSYAAPWWVSLLHRLPHFDLRWEATSSQFRPEDADYQQAASAYGNGETSDGIHRATYSLRHANRTVAGVQDRVWDTAAALNRTAEPNLQSLERQLAGRQEPLRAVQRLQTGAARSSKGSAACSIPHTWQQKRGPDDDGEEETAPGPR then?
soluble

For LGLWPVHRLSEEARRISPRQLSQRLQLSPLPAELRELVGAFNGALDRLEQAYVRLESFNADVAHELRTPLTNLIGQTQVALSRERSGEHYEEVLQSNLEELERLRAIVNDMLFLARADQGRLACEREETSLAGEIATTVDFLEVIFDEAGVGIEVRGEARALVERALFQRAVTNLLYNAAQHTAAGGTLRVGVERRGDEVRVAVSNPGVPIADEHRRHLFERFYRVDAARSNSEANHGLGLSIVKAVASMHGGSVFVDSADGWNTFGFTVLSPERRGPGDR then?
not soluble

For MKFKYGATLFSGFLGLSAILAACGAKGKFDQVDDGKIVLASSLTSKNAANALQAVVEKYNQVKGGNDYPIEITQITGGYDGGRGNLQTKLSVKDKTTFYNLI then?
soluble

For MRANIWQILSVSVLFFFGTAIGQAQSRNRTYEAYVKQYADEAIRQMSRYNIPASITIAQALVETGAGASTLASVHNNHFGIKCHKSWTGKRTYRTDDAPNECFRSYSAARESYEDHSRFLLQPRYRPLFKLDREDYRGWATGLQRCGYATNRGYANLLIKMVELYELYALDREKYPSWFHKSYPGSNKKSHQTTKQKQSGLKHEAYFSYGLLYIIAKQGDTFDSLAEEFDMRASKLAKYNDAPVDFPIEKGDVIYLEKKHACSISKHTQHVVRVGDSMHSISQRYGIRMKNLYKLNDKDGEYIPQEGDILRLR then?
not soluble

For MGHHHHHHSHMEYHTMIRELILDGSLQLIQEGLKSGFLYPLFEKQDKGSKPITLPLDACSLSELCEMAKHLPSLNEMEHQTLQLVEEDTSVTEQDLFLRVVENNSSFTKVITLMGQKYLLPPKSSFLLSDISCMQPLLNYRKTFDVIVIDPPWQNKSVKRSNRYSYLSPLQIQQIPIPKLAAPNCLLVTWVTNRQKHLRFIKEELLSLLVCGGSC then?
not soluble

For MAHHHHHHMAWTCSALSNASMIQNLERAALLSTPAIIASLQRVDRGWFVPDGMRSSAYRDEPLSLGHGATISAPHMHAIMLELLSPFLLSTPGSLPKAVLDIGSGSGYLTAILADICGDGSRVVGVEHVVELQERSLKVVLQHFPSWVNEGRITFINGDGRDISKLFHPHTAMFDVIHVGAAAASVPKDYLEAIKPGGCLVIPVGKENEVQHLHLYTKDEKGTITKKTHGGVSFVPLTSLRHQKNRS then?
soluble
